System: HsNMT
Assay type: biochemical, human
Conditions: mean of two or more determinations
pIC50: −log10 of the molar value.
We begin with a simple list: items and their reported pIC50.
recordedEndpoint: pIC50

compound="Cc1nn(C)c(C)c1N(C(F)F)S(=O)(=O)c1c(Cl)cc(CCCOC[C@H]2CCCN2)cc1Cl [compound 87]" measured=7.48
compound="Cc1nn(C)c(C)c1N(C(F)F)S(=O)(=O)c1c(Cl)cc(CCCOC2CCC(N(C)C)CC2)cc1Cl (stereo not shown) [compound 76]" measured=8.30
compound="Cc1nn(C)c(C)c1NS(=O)(=O)c1ccc(-c2ccnc(N3CCNC(c4ccccc4)C3)c2)cc1 (stereo not shown) [compound 61]" measured=5.61
compound="Cc1nn(C)c(C)c1N(C(F)F)S(=O)(=O)c1c(Cl)cc(CCCCCCn2ccnc2C(C)C)cc1Cl [compound 70]" measured=6.30
compound="Cc1nn(C)c(C)c1NS(=O)(=O)c1ccc(-c2ccnc(N3CCNC(Cc4ccccc4)C3)c2)cc1 (stereo not shown) [compound 64]" measured=5.82
compound="Cc1nn(C)c(C)c1N(C(F)F)S(=O)(=O)c1c(Cl)cc(CCCOC2CC(C)(C)N(C)C(C)(C)C2)cc1Cl [compound 75]" measured=5.77
compound="Cc1nn(C)c(C)c1N(C(F)F)S(=O)(=O)c1c(Cl)cc(CCCOC[C@@H]2CCCN2)cc1Cl [compound 86]" measured=6.96
